The origin of these recorded values is patent US5879896A.

- MEASURED ON: T1, human TRH receptor protein (human)
- T1 chain: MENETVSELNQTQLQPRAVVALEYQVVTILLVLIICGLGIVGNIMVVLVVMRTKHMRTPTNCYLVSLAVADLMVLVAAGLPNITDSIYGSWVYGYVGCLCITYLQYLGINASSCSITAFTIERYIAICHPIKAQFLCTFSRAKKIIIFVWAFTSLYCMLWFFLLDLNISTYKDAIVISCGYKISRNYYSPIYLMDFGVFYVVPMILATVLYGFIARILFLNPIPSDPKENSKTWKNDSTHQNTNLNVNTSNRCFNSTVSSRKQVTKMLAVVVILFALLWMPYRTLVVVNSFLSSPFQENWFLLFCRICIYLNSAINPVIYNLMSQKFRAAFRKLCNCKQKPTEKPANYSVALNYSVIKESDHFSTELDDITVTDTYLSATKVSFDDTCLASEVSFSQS
- TEST METHOD NOTES: competition with 10 nM 3H-TRH, CHO cells expressing human TRH receptor; compound at 10^-5 M
Square brackets hold non-standard residues; d marks the D form. Ends that are not written are not given here. pGlu = O=C1CC[C@@H](C(=O)O)N1
Provide the recorded Antagonistic Rate (%) for the entries that follow.
Answers are plain numbers, in %.

Dear colleague, could you please provide Antagonistic Rate (%) for the binders listed below?
1. [pGlu]-His-Pro [pGLU His Pro]
2. HP (cyclic dipeptide (diketopiperazine) of His and Pro) [Cyclo(His--Pro) His Pro-Diketopiperazine]
3. [pGlu]-Glu-Pro-NH2 (SMILES NC(=O)[C@@H]1CCCN1C(=O)[C@H](CCC(=O)O)NC(=O)[C@@H]1CCC(=O)N1) [pGlu Glu Pro NH2]

Key:
1. 11.8
2. 0.6
3. -2.9
